Tested on: SK-MEL-28 melanoma
Assay Remarks: NCI tumour cell line growth inhibition, 48 h
Hi there, I'd appreciate the recorded GI50 for every entry that follows.

Challenge: What does the data say about its GI50? Entry: CNC(=O)C(CCc1ccccc1)NC(=O)C(CC(=O)NO)CC(C)C (stereo not given)
Response given: > 25 µM

Challenge: Need GI50 of N#C/C(=C\c1cn(Cc2ccccc2)c2ccccc12)C(=O)Nc1ncc(Cc2ccccc2Cl)s1 , thanks.
Response given: 2.36 µM

Challenge: I am curious: what GI50 value has been reported for Oc1ccc(Nc2nc3ccccc3c3occc23)cc1 ?
Response given: 17.6 µM

Challenge: Which GI50 value belongs to CCOC(=O)c1c(NC(=O)COc2cccc3cccnc23)sc(C(=O)N(C)C)c1C ?
Response given: 16.9 µM

Challenge: Request the reported GI50 associated with Cn1c(=O)n(CCCO)c(=O)c2c1nc(Oc1cccc(OC(F)(F)F)c1)n2Cc1ccc(Cl)cc1
Response given: 14.1 µM

Challenge: If you can, please state the reported GI50 value of CC1OC(OC2C(O)C(OCCc3ccc(O)c(O)c3)OC(CO)C2OC(=O)/C=C/c2ccc(O)c(O)c2)C(O)C(O)C1OC1OCC(O)(CO)C1O (stereo not given) .
Response given: > 100 µM

Challenge: What does the record list as GI50 for COc1cc(C(=O)c2c(-c3ccccc3)oc3c(OC)cccc23)cc(OC)c1O ?
Response given: 4.09 µM

Challenge: # lookup: GI50 of CN(C)c1ccc(Nc2ncnc3ccccc23)cc1
Response given: > 100 µM

Challenge: Entry under review: C=C1CC2(OC1=O)C(=O)N(C)c1ccc(I)cc12 (stereo not given) . Reported GI50?
Response given: 1.73 µM

Challenge: Would you mind telling me what GI50 value was observed for C=C1C(=O)O[C@H]2[C@H]1CC/C(CNC(=O)c1cccc3ccccc13)=C\CC[C@@]1(C)O[C@@H]21 ?
Response given: 2.78 µM
